- measurement target: histamine-H1 receptor (Cavia porcellus)
- Construct: Cell membrane fractions, prepared from tissue homogenates or cells; from tissue
- Sequence (P31389 whole entry): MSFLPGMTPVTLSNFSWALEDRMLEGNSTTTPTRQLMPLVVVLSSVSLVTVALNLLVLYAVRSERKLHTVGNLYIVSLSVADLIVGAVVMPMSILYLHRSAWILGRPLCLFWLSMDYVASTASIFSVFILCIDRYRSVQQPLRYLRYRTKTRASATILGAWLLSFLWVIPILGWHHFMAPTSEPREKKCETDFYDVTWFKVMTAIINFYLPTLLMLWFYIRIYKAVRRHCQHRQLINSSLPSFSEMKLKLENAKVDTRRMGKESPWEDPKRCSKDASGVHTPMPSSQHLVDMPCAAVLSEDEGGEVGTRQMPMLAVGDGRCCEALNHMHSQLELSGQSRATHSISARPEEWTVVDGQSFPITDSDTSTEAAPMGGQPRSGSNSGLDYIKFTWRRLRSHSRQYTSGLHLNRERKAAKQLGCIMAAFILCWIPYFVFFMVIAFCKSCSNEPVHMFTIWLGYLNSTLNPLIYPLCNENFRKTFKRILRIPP
- test method notes: histamine-H1 receptor binding, [3H]pyrilamine displacement
- study conditions: read-out: IC50 (inhibition of [3H]-ligand binding) (converted)
quantity measured: IC50 (µM)
Just the number please, in µM, no unit attached.

Completed entries (count: 2):
| compound structure | IC50 [µM] |
| --- | --- |
| COc1cc(N)c(Br)cc1C(=O)NC1(C)CCN(CCCOc2ccc(F)cc2)CC1 | 10 |
| COc1cc(N)c(I)cc1C(=O)NC1(C)CCN(CCCOc2ccc(F)cc2)CC1 | 6.46 |

Moving on to the next compound.
Query: Please report the recorded IC50 for COc1cc(N=[N+]=[N-])c(Br)cc1C(=O)NC1(C)CCN(CCCOc2ccc(F)cc2)CC1 .
Result: 8.51
